target: hM3Dq (Homo sapiens, UniProt P20309, A239G/Y149C); construct: human M3 muscarinic receptor DREADD; AAV plasmid Addgene #89149; transiently expressed in HEK-293 cells; experiment: [3H]clozapine competition, HEK-293 membranes
Sequence (P20309 whole entry Y149C/A239G): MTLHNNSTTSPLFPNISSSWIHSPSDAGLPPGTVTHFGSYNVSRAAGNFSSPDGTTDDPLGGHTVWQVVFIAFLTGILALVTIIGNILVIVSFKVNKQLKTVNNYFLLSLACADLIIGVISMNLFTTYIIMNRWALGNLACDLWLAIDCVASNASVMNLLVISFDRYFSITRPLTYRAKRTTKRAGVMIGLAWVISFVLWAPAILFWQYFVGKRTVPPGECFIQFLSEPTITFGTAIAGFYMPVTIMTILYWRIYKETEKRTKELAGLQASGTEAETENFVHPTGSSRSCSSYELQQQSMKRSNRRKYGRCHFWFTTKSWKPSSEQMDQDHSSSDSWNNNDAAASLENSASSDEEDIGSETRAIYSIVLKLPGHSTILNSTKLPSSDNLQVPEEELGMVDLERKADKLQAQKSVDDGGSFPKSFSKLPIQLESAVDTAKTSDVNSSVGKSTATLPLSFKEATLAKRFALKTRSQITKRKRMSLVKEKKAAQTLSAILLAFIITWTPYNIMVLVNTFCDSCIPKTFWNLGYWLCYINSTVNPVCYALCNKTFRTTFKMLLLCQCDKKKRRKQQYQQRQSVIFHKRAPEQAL
Assay endpoint: pKi
Please report pKi as the negative decimal logarithm of the molar concentration, giving only the number.

Please report the recorded pKi for `c1ccc2c(c1)N=C(N1CCNCC1)c1ccccc1N2` .
6.64

* * *

molecular target: hM4Di (Homo sapiens, UniProt P08173, Y113C/A203G); construct: human M4 muscarinic receptor DREADD; AAV plasmid Addgene #89150; transiently expressed in HEK-293 cells; docking model prints Y113G/A203G, the standard DREADD is Y113C/A203G; assay: [3H]clozapine competition, HEK-293 membranes; details: 2.5 nM [3H]clozapine, 50 mM Tris-HCl pH 7.4, 10 mM MgCl2, RT, 2 h
Sequence (P08173 whole entry Y113C/A203G): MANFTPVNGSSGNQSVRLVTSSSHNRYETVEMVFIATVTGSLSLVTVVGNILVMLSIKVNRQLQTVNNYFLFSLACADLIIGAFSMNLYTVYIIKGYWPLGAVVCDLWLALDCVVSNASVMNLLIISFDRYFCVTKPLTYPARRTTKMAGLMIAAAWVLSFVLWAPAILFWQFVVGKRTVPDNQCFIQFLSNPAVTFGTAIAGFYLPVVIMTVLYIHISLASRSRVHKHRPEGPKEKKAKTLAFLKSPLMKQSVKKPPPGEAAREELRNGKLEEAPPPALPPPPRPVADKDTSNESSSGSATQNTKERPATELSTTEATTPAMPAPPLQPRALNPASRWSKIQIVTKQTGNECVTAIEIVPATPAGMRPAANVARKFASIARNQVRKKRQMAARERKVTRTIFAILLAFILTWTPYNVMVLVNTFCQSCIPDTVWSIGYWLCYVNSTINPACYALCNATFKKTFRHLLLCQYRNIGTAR
Assay endpoint: Ki (nM)
# number only, unit nM dropped from output

Can you share its Ki? I mean this molecule: `CCN1CCN(C2=Nc3cc(Cl)ccc3Nc3ccccc32)CC1`
4.3

* * *

target: hM3Dq (Homo sapiens, UniProt P20309, Y149C/A239G); construct: human M3 muscarinic receptor DREADD; AAV plasmid Addgene #89149; transiently expressed in HEK-293 cells; assay: [3H]clozapine competition, HEK-293 membranes; details: 2.5 nM [3H]clozapine, 50 mM Tris-HCl pH 7.4, 10 mM MgCl2, RT, 2 h
Sequence (P20309 whole entry Y149C/A239G): as the sequence (P20309 whole entry Y149C/A239G) above
Assay endpoint: Ki (nM)
All answers are understood in nM, so give the number only.

Dear colleague, I am looking for the recorded Ki of the following compound: `CCN1CCN(C2=Nc3cc(Cl)ccc3Nc3ccccc32)CC1`
4.3

* * *

target: hM4Di (Homo sapiens, UniProt P08173, A203G/Y113C); construct: human M4 muscarinic receptor DREADD; AAV plasmid Addgene #89150; transiently expressed in HEK-293 cells; docking model prints Y113G/A203G, the standard DREADD is Y113C/A203G; assay: [3H]clozapine competition, HEK-293 membranes
Assay endpoint: Ki (nM)
Answer format: numeric, nM implied, no suffix.

Dear colleague, I am looking for the recorded Ki of the following compound: c1ccc2c(c1)N=C(N1CCNCC1)c1ccccc1N2 [C21, Compound 21]
91
